Parameter Ratio IC50: see the listing below.
test system: Plasmodium falciparum; assay: Resistance index, ratio of IC50 for antiplasmodial activity against erythrocytic stage of chloroquine-resistant Plasmodium falciparum Dd2 to IC50 for antiplasmodial activity against erythrocytic stage of chloroquine-sensitive Plasmodium falciparum 3D7; type: functional
Could you keep your reply to the number by itself?

Consider the reported Ratio IC50 for these compounds:
• COc1cc(NC(C)CCCn2cc(COc3ccc4c(c3)[nH]c3c(C)nccc34)nn2)c2ncccc2c1 (centres undefined) = 1.67
• COc1cc(NC(C)CCCn2cc(-c3nccc4c3[nH]c3ccccc34)nn2)c2ncccc2c1 (centres undefined) = 1.77
• COc1cc(NC(C)CCCn2cc(-c3cc4c([nH]c5ccccc54)c(C)n3)nn2)c2ncccc2c1 (centres undefined) = 0.74

**Q:** If you can, please state the reported Ratio IC50 value of COc1cc(NC(C)CCCn2cc(COc3ccc4[nH]c5c(C)nccc5c4c3)nn2)c2ncccc2c1-c1c(OC)cc(NC(C)CCCn2cc(COc3ccc4[nH]c5c(C)nccc5c4c3)nn2)c2ncccc12 (centres undefined) .
**A:** 1.12

====

system: HCT-116; experiment: Antiproliferative activity against human HCT-116 cells assessed as reduction in cell viability incubated for 72 hrs by MTT assay; assay type: functional, cell-based; settings: HCT-116, 72 h
Quantity name: IC50 (µM)
Reply with just the number (in µM).

Consider the reported IC50 for these compounds:
- COc1cc(NC(C)CCCNC(=O)NCCn2c3cc(OC)ccc3c3ccnc(C)c32)c2ncccc2c1 (stereo unspecified): 10.6
- COc1cc(NC(C)CCCNC(=O)NCCOc2ccc3c(c2)[nH]c2c(C)nccc23)c2ncccc2c1 (stereo unspecified): 7.71
- COc1cc(NC(C)CCCNC(=O)NCCOc2ccc3[nH]c4c(C)nccc4c3c2)c2ncccc2c1 (stereo unspecified): 7.79

**Q:** If you can, please state the reported IC50 value of COc1cc(NC(C)CCCn2cc(-c3nccc4c3[nH]c3ccccc34)nn2)c2ncccc2c1 (stereo unspecified) .
**A:** 10.2

**Q:** If you can, please state the reported IC50 value of COc1ccc2c(c1)[nH]c1c(C)nccc12 .
**A:** 7.64

**Q:** If you can, please state the reported IC50 value of COc1cc(NC(C)CCCn2cc(COc3ccc4c(c3)[nH]c3c(C)nccc34)nn2)c2ncccc2c1 (stereo unspecified) .
**A:** 7.31

Hello, the source for this data is ChEMBL document CHEMBL5550130, in case you need it.
